- experimental-target: UniProtKB Q72874
- test-description: Inhibitory activity against HIV -1 Protease in whole cell assay
measurement-name: IC90
# do not omit the unit; it follows the number

| chemical-smiles | obs-value |
| --- | --- |
| Nc1cccc(CN2C(=O)N(Cc3ccc4[nH]nc(-c5cccc(N)c5)c4c3)[C@H](Cc3ccccc3)[C@H](O)[C@@H](O)[C@H]2Cc2ccccc2)c1 | 30 nM |

Give the reported IC90 for this molecule. `Nc1cccc(CN2C(=O)N(Cc3ccc4[nH]nc(-c5cccc(C(F)(F)F)c5)c4c3)[C@H](Cc3ccccc3)[C@H](O)[C@@H](O)[C@H]2Cc2ccccc2)c1`
39 nM

Give the reported IC90 for this molecule. `Nc1cccc(CN2C(=O)N(Cc3ccc4[nH]nc(-c5cccs5)c4c3)[C@H](Cc3ccccc3)[C@H](O)[C@@H](O)[C@H]2Cc2ccccc2)c1`
31 nM

Give the reported IC90 for this molecule. `COc1cccc(-c2[nH]nc3ccc(CN4C(=O)N(Cc5cccc(N)c5)[C@H](Cc5ccccc5)[C@H](O)[C@@H](O)[C@H]4Cc4ccccc4)cc23)c1`
33 nM

###

- experimental-target: Human immunodeficiency virus type 1 protease (Human immunodeficiency virus 1, UniProt Q72874)
Each record is given TRUE if its reported Ki is strictly below 0.2 nM. Records at or above 0.2 nM are given FALSE.

Use the examples below as a reference point.
| chemical-smiles | assigned-label |
| --- | --- |
| Nc1cccc(CN2C(=O)N(Cc3ccc4[nH]nc(-c5cc[nH]n5)c4c3)[C@H](Cc3ccccc3)[C@H](O)[C@@H](O)[C@H]2Cc2ccccc2)c1 | TRUE |
| COc1ccc(-c2[nH]nc3ccc(CN4C(=O)N(Cc5cccc(N)c5)[C@H](Cc5ccccc5)[C@H](O)[C@@H](O)[C@H]4Cc4ccccc4)cc23)cc1 | FALSE |
| Nc1cccc(CN2C(=O)N(Cc3ccc4[nH]nc(-c5ccc(F)cc5)c4c3)[C@H](Cc3ccccc3)[C@H](O)[C@@H](O)[C@H]2Cc2ccccc2)c1 | FALSE |
| COc1cccc(-c2n[nH]c3ccc(CN4C(=O)N(Cc5cccc(N)c5)[C@H](Cc5ccccc5)[C@H](O)[C@@H](O)[C@H]4Cc4ccccc4)cc23)c1 | FALSE |
| Nc1cccc(CN2C(=O)N(Cc3ccc4[nH]nc(-c5cccc(N)c5)c4c3)[C@H](Cc3ccccc3)[C@H](O)[C@@H](O)[C@H]2Cc2ccccc2)c1 | TRUE |

Please check: Ki for `Nc1cccc(CN2C(=O)N(Cc3ccc4[nH]nc(-c5ccsc5)c4c3)[C@H](Cc3ccccc3)[C@H](O)[C@@H](O)[C@H]2Cc2ccccc2)c1` , strictly under 0.2 nM or not?
TRUE

Please check: Ki for `Nc1cccc(CN2C(=O)N(Cc3ccc4[nH]nc(-c5cccs5)c4c3)[C@H](Cc3ccccc3)[C@H](O)[C@@H](O)[C@H]2Cc2ccccc2)c1` , strictly under 0.2 nM or not?
TRUE

Please check: Ki for `Nc1cccc(CN2C(=O)N(Cc3ccc4[nH]nc(-c5ccc(C(F)(F)F)cc5)c4c3)[C@H](Cc3ccccc3)[C@H](O)[C@@H](O)[C@H]2Cc2ccccc2)c1` , strictly under 0.2 nM or not?
FALSE

Please check: Ki for `Nc1cccc(CN2C(=O)N(Cc3ccc4[nH]nc(-c5cccc(C(F)(F)F)c5)c4c3)[C@H](Cc3ccccc3)[C@H](O)[C@@H](O)[C@H]2Cc2ccccc2)c1` , strictly under 0.2 nM or not?
FALSE

###

Form field: log10 of IC90 (one value per entry).
- experimental-target: Human immunodeficiency virus type 1 protease (Human immunodeficiency virus 1) (UniProt Q72874)
- test-description: Inhibitory activity against HIV -1 Protease in whole cell assay
Use the decimal logarithm of IC90 (nM).

| chemical-smiles | log10 of IC90 |
| --- | --- |
| Nc1cccc(CN2C(=O)N(Cc3ccc4[nH]ncc4c3)[C@H](Cc3ccccc3)[C@H](O)[C@@H](O)[C@H]2Cc2ccccc2)c1 | 1.04 |
| COc1ccc(-c2[nH]nc3ccc(CN4C(=O)N(Cc5cccc(N)c5)[C@H](Cc5ccccc5)[C@H](O)[C@@H](O)[C@H]4Cc4ccccc4)cc23)cc1 | 1.15 |
| Nc1cccc(CN2C(=O)N(Cc3ccc4[nH]nc(-c5cc[nH]n5)c4c3)[C@H](Cc3ccccc3)[C@H](O)[C@@H](O)[C@H]2Cc2ccccc2)c1 | 2.03 |
| Nc1cccc(CN2C(=O)N(Cc3ccc4[nH]nc(-c5ccsc5)c4c3)[C@H](Cc3ccccc3)[C@H](O)[C@@H](O)[C@H]2Cc2ccccc2)c1 | 1.51 |
| Nc1cccc(CN2C(=O)N(Cc3ccc4[nH]nc(-c5ccc(F)cc5)c4c3)[C@H](Cc3ccccc3)[C@H](O)[C@@H](O)[C@H]2Cc2ccccc2)c1 | 1.59 |

Give the reported log10 of IC90 for this molecule. `Nc1cccc(CN2C(=O)N(Cc3ccc4[nH]nc(-c5ccc(C(F)(F)F)cc5)c4c3)[C@H](Cc3ccccc3)[C@H](O)[C@@H](O)[C@H]2Cc2ccccc2)c1`
2.41

###

- Test system: Human immunodeficiency virus 1
- test-description: Inhibitory activity against Ritonavir resistant virus mutant strain
- Assay type: functional
Form field: IC90 (one value per entry).
Hi! Could you send only the number? It should be in µM, unit omitted.

| compound | IC90 [µM] |
| --- | --- |
| Nc1cccc(CN2C(=O)N(Cc3ccc4[nH]nc(-c5cc[nH]n5)c4c3)[C@H](Cc3ccccc3)[C@H](O)[C@@H](O)[C@H]2Cc2ccccc2)c1 | 0.525 |
| CC(C)c1nc(CN(C)C(=O)N[C@H](C(=O)N[C@@H](Cc2ccccc2)C[C@H](O)[C@H](Cc2ccccc2)NC(=O)OCc2cncs2)C(C)C)cs1 [RITONAVIR] | 4.5 |
| COc1cccc(-c2[nH]nc3ccc(CN4C(=O)N(Cc5cccc(N)c5)[C@H](Cc5ccccc5)[C@H](O)[C@@H](O)[C@H]4Cc4ccccc4)cc23)c1 | 3.14 |
| Nc1cccc(CN2C(=O)N(Cc3ccc4[nH]nc(-c5cccc(N)c5)c4c3)[C@H](Cc3ccccc3)[C@H](O)[C@@H](O)[C@H]2Cc2ccccc2)c1 | 1.3 |
| Nc1cccc(CN2C(=O)N(Cc3ccc4[nH]ncc4c3)[C@H](Cc3ccccc3)[C@H](O)[C@@H](O)[C@H]2Cc2ccccc2)c1 | 0.825 |

Give the reported IC90 for this compound. `COc1ccc(-c2[nH]nc3ccc(CN4C(=O)N(Cc5cccc(N)c5)[C@H](Cc5ccccc5)[C@H](O)[C@@H](O)[C@H]4Cc4ccccc4)cc23)cc1`
4.19

###

Form field: IC90 (one value per entry).
- Tested on: Human immunodeficiency virus 1
- test-description: Inhibitory activity against Ritonavir resistant virus mutant strain
- Format: functional

Before answering, review these 2 worked examples.
| chemical-smiles | IC90 |
| --- | --- |
| Nc1cccc(CN2C(=O)N(Cc3ccc4[nH]nc(-c5ccc(F)cc5)c4c3)[C@H](Cc3ccccc3)[C@H](O)[C@@H](O)[C@H]2Cc2ccccc2)c1 | > 5 µM |
| Nc1cccc(CN2C(=O)N(Cc3ccc4[nH]nc(-c5cccs5)c4c3)[C@H](Cc3ccccc3)[C@H](O)[C@@H](O)[C@H]2Cc2ccccc2)c1 | > 5 µM |

Give the reported IC90 for this compound. `Nc1cccc(CN2C(=O)N(Cc3ccc4[nH]nc(-c5ccsc5)c4c3)[C@H](Cc3ccccc3)[C@H](O)[C@@H](O)[C@H]2Cc2ccccc2)c1`
> 5 µM
